tested on: COR-L23; assay: relative viability (nuclei count vs DMSO), 5 days (fraction); higher = more cells survive; details: first compound 0.05 µM
Each record here notes measured relative viability.
measured.property: relative viability

compound | result.value
Nc1ccn([C@@H]2O[C@H](CO)[C@@H](O)[C@@H]2O)c(=O)n1 [Cytarabine] + Cc1nc(Nc2ncc(C(=O)Nc3c(C)cccc3Cl)s2)cc(N2CCN(CCO)CC2)n1 [Dasatinib] (partner 0.075 µM) | 0.287
COc1cc2nccc(Oc3ccc(NC(=O)Nc4cc(C)on4)c(Cl)c3)c2cc1OC [Tivozanib] + COc1cccc2cc(-c3nc([C@H]4CC[C@H](C(=O)O)CC4)n4ncnc(N)c34)[nH]c12 [OSI-027] (partner 0.5 µM) | 0.799
COc1cc2nccc(Oc3ccc(NC(=O)Nc4cc(C)on4)c(Cl)c3)c2cc1OC [Tivozanib] + O=C(CCCCCCC(=O)Nc1ccccc1)NO [Vorinostat] (partner 1 µM) | 0.607
